System: RAW-Dual
method_summary: NF-kB SEAP reporter activity, fold change vs agonist alone; cytotoxicity flag (confluency mask): not cytotoxic; higher = enhanced NF-kB activity
condition_set: agonist: ODN 1826 (TLR9) 0.5 ug/mL
Whole data set: some 2,900 compounds, median “NF-kB SEAP reporter activity, fold change vs agonist alone” near 0.99, cut for the highest 2% near 2.6. This excerpt belongs to a sample that is enriched for the highest values.
Measured NF-kB SEAP reporter activity accompanies every entry in the list below.

Asked: Give the measured NF-kB SEAP reporter activity of O=C(NCc1cccc(O)c1)Nc1nc(-c2ccncc2)cs1 (library stock concentration (final ~1000-fold dilution): 10 mM) .
Given back: 1.21

Asked: Give the measured NF-kB SEAP reporter activity of CN1CCC(c2c(O)cc(O)c3c(=O)cc(-c4ccccc4Cl)oc23)C(O)C1.Cl (stereo unspecified) (library stock concentration (final ~1000-fold dilution): 10 mM) .
Given back: 0.968

Further cases:
Asked: Give the measured NF-kB SEAP reporter activity of Oc1ccc(Nc2nc(-c3ccc(Cl)cc3)cs2)cc1 (library stock concentration (final ~1000-fold dilution): 10 mM) .
Given back: 0.27

Asked: Give the measured NF-kB SEAP reporter activity of CCOCc1nc2c(N)nc3ccccc3c2n1CC(C)(C)O (library stock concentration (final ~1000-fold dilution): 3.2 mM) .
Given back: 1.69

Asked: Give the measured NF-kB SEAP reporter activity of COc1cc2nccc(Oc3ccc(NC(=O)C4(C(=O)Nc5ccc(F)cc5)CC4)cc3)c2cc1OC (library stock concentration (final ~1000-fold dilution): 10 mM) .
Given back: 0.42

Asked: Give the measured NF-kB SEAP reporter activity of C=C1C(=O)OC2/C=C(\C)CC/C=C(\C)CCC12 (stereo unspecified) (library stock concentration (final ~1000-fold dilution): 10 mM) .
Given back: 0.213
